# tested-target: Laminin 421/521
# procedure-summary: phage display, NGS count
readout: Count
Numbers only.

Here are 2 binders together with their reported answers.
>>> number("WEEHRVEILPDV")
38
>>> number("SVVGWAAPRTAQ")
27

Record Count for all entries; do not skip any.
1. GIVPSRHTTGLG
2. ALPWQSGVHGTK
3. LGHQNGGRADMW

Output:
[28, 34, 35]

Record Count for all entries; do not skip any.
1. CSLANPATC
2. QGHPFIY
3. SLAVANTRFMIR

Output:
52
40
49
